- Assay Overview: Quantitative High-Throughput drug screen in 47 multiple myeloma cell lines against the NCATS MIPE library collection: KMS28BM_JCRB cell viability assay (AID 1919874); also: nearly all actives have a fitted effect of over 35% in size
- Assay Context: CellTiter-Glo ATP, 48 h; series mostly up to 45.8 µM
Records with an inconclusive call do not appear. Activity calls are given as the source filed them. Calls follow the shape of the dose curve; as a rule, active = well fitted cell-killing curve with a large enough effect; inconclusive = small, poorly fitted or top-dose-only effect, or effect the other way; inactive = no such curve, though single readings can be large or run the other way.
Classes to choose from: active, inactive

# count of solved cases: 3
INSERT INTO results (compound, discrete_label) VALUES
  ('COc1ccc(Cc2nccc3cc(OC)c(OC)cc23)cc1OC', 'active'),
  ('NC[C@@H]1O[C@@H](O[C@H]2[C@@H](O)[C@H](O[C@@H]3[C@@H](O)[C@@H](N)C[C@H](N)[C@H]3O[C@H]3O[C@H](CN)[C@@H](O)[C@@H](O)[C@H]3N)O[C@H]2CO)[C@H](N)[C@@H](O)[C@@H]1O', 'inactive'),
  ('CO[C@@H](C(=O)N1Cc2[nH]nc(NC(=O)c3ccc(N4CCN(C)CC4)cc3)c2C1)c1ccccc1', 'active');

Test call, this compound: C[C@]12CCC3c4ccc(O)cc4CCC3C1CCC2=O (some centres undefined)
active

Test call, this compound: COc1cc(NC(=O)c2ccc(-c3ccc(Cl)cc3)o2)cc(OC)c1
inactive

Test call, this compound: CC[C@@]1(O)C[C@H](O[C@H]2C[C@H](N(C)C)[C@H](O[C@H]3C[C@H](O)[C@H](O[C@H]4CCC(=O)[C@H](C)O4)[C@H](C)O3)[C@H](C)O2)c2c(cc3c(c2O)C(=O)c2c(O)cccc2C3=O)[C@@H]1C(=O)OC
active

Test call, this compound: O=C(NC1CCOCC1)c1ccc(-c2cc(-c3cn[nH]c3-c3ccccn3)ccn2)cc1
inactive

Test call, this compound: CC(C)=CC[C@@H](O)C1=CC(=O)c2c(O)ccc(O)c2C1=O
active
